Target: 5HT1A receptor (Rattus norvegicus)
Construct: Membrane fragments were prepared from prefrontal cortex; from tissue; host or cells: prefrontal/frontal cortex of female rats (about 150 g), membrane fragments
Sequence (P19327 whole entry, the tested form may be a part): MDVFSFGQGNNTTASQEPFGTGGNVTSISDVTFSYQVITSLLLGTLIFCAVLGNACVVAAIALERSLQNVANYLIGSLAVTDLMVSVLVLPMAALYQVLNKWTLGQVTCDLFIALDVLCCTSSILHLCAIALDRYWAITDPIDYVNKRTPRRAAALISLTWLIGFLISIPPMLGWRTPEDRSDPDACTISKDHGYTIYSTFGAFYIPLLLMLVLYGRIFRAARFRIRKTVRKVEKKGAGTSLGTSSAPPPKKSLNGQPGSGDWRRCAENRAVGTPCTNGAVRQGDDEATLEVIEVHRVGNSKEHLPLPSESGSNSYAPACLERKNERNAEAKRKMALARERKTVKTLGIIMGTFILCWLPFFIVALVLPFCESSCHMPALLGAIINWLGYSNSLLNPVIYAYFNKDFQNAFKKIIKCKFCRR
Test: Brain Serotonin (5HT1A) radioreceptor Assay (3H-8-OH DPAT displacement, rat frontal cortex membranes)
Format: binding
Conditions: @ 1 μM; 3H-8-OH DPAT; read-out: Brain 5-HT1 Receptor % displaced (% inhibition)
Label rule, in plain words: inhibition at 1 µM of 3% and up is T, under 3% is F.

Example entries begin here.
O=C(c1ccccc1)n1c(=O)n(CCN2CCC(=C(c3ccc(F)cc3)c3ccc(F)cc3)CC2)c(=O)c2cscc21
F
CCCCn1c(=O)n(CCN2CCC(C(=O)c3ccc(F)cc3)CC2)c(=O)c2cscc21 [Example 15, Hydrate]
F
O=C(c1ccc(F)cc1)C1CCN(CCn2c(=O)c3cscc3n(C(=O)c3ccccc3)c2=O)CC1
T
CC(=O)n1c(=O)n(CCN2CCC(C(=O)c3ccc(F)cc3)CC2)c(=O)c2ccsc21
T
Cc1scc2[nH]c(=O)n(CCN3CCC(=C(c4ccc(F)cc4)c4ccc(F)cc4)CC3)c(=O)c12
F
O=c1[nH]c2cscc2c(=O)n1CCN1CCC(=C(c2ccc(F)cc2)c2ccc(F)cc2)CC1
T
Cc1scc2[nH]c(=O)n(CCN3CCC(C(=O)c4ccc(F)cc4)CC3)c(=O)c12
F
CCCCn1c(=O)n(CCN2CCC(C(=O)c3ccc(F)cc3)CC2)c(=O)c2ccsc21
T
CC(C)(C)C(=O)n1c(=O)n(CCN2CCC(C(=O)c3ccc(F)cc3)CC2)c(=O)c2cscc21
T
O=c1[nH]c2sccc2c(=O)n1CCN1CCC(=C(c2ccc(F)cc2)c2ccc(F)cc2)CC1
T

Exercise: Could you tell me if the measured inhibition at 1 µM of O=c1[nH]c2cocc2c(=O)n1CCN1CCC(=C(c2ccc(F)cc2)c2ccc(F)cc2)CC1 reaches 3% or more?
Key: T

Exercise: Could you tell me if the measured inhibition at 1 µM of Cn1c(=O)n(CCN2CCC(C(=O)c3ccc(F)cc3)CC2)c(=O)c2cscc21 reaches 3% or more?
Key: T

Exercise: Could you tell me if the measured inhibition at 1 µM of CC(=O)n1c(=O)n(CCN2CCC(C(=O)c3ccc(F)cc3)CC2)c(=O)c2cscc21 reaches 3% or more?
Key: F

---

# reported pIC50; entries follow
Biological target: 5HT2 (Rattus norvegicus)
Sequence (P14842 whole entry): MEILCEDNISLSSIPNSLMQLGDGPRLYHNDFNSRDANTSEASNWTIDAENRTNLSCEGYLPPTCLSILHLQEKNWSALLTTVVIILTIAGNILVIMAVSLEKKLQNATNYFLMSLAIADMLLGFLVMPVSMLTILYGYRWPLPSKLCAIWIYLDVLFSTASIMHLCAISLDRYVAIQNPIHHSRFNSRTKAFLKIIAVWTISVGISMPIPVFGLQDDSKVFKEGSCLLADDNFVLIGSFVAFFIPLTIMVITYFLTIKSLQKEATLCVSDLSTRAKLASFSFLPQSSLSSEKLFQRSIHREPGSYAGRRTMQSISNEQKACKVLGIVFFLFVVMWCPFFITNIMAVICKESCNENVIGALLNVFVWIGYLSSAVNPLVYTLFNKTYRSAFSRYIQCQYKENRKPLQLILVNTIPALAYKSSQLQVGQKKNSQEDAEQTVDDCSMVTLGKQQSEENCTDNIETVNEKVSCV
Scale explanation: pIC50 corresponds to minus log10 of a concentration expressed in moles per litre.

CC(C)(C)C(=O)n1c(=O)n(CCN2CCC(C(=O)c3ccc(F)cc3)CC2)c(=O)c2cscc21 [Example 13]
7.82
Cc1scc2[nH]c(=O)n(CCN3CCC(C(=O)c4ccc(F)cc4)CC3)c(=O)c12 [Example 16]
8.15
CCCCn1c(=O)n(CCN2CCC(C(=O)c3ccc(F)cc3)CC2)c(=O)c2ccsc21 [Example 18]
7.64
O=C(c1ccc(F)cc1)C1CCN(CCn2c(=O)[nH]c3ccsc3c2=O)CC1 [Example 1]
9.22
O=c1[nH]c2cscc2c(=O)n1CCN1CCC(=C(c2ccc(F)cc2)c2ccc(F)cc2)CC1 [Example 4]
8.55

Exercise: State, in one line, measured pIC50 of O=C(c1ccc(F)cc1)C1CCN(CCn2c(=O)[nH]c3cscc3c2=O)CC1 [Example 10]
Key: 9.48

Exercise: State, in one line, measured pIC50 of O=C(c1ccccc1)n1c(=O)n(CCN2CCC(=C(c3ccc(F)cc3)c3ccc(F)cc3)CC2)c(=O)c2cscc21 [Example 8]
Key: 6.70

Exercise: State, in one line, measured pIC50 of O=c1[nH]c2cocc2c(=O)n1CCN1CCC(=C(c2ccc(F)cc2)c2ccc(F)cc2)CC1 [Example 9]
Key: 8.38

---

Target or system 5HT2 (Rattus norvegicus, UniProt P14842); recorded quantity pIC50.
Scale explanation: pIC50 corresponds to minus log10 of a concentration expressed in moles per litre.

Exercise: Name the recorded pIC50 of Cn1c(=O)n(CCN2CCC(C(=O)c3ccc(F)cc3)CC2)c(=O)c2cscc21 [Example 14] , assay system 5HT2 (Rattus norvegicus, UniProt P14842).
Key: 8.15

Exercise: Name the recorded pIC50 of O=C(c1ccc(F)cc1)C1CCN(CCn2c(=O)c3cscc3n(C(=O)c3ccccc3)c2=O)CC1 [Example 12] , assay system 5HT2 (Rattus norvegicus, UniProt P14842).
Key: 8.07

Exercise: Name the recorded pIC50 of CC(=O)n1c(=O)n(CCN2CCC(C(=O)c3ccc(F)cc3)CC2)c(=O)c2cscc21 [Example 11] , assay system 5HT2 (Rattus norvegicus, UniProt P14842).
Key: 7.90
